# experiment: Dissociation constant
# Assay type: physicochemical
# applied conditions: 25° C.
assay metric: pKa
Respond numerically, and do not add a unit to the figure.

# query: pKa of entry COc1cc2nccc(Oc3ccc(NC(=O)NC4CC4)c(Cl)c3)c2cc1C(N)=O [LENVIMA, methanesulfonate]
5.05
